- Assay Explanation: The drug is tested on Bacteroides sp. WH2 strain: WH2 for biotransformation. The drug concentrations were measured before and after a 12-h incubation by liquid-chromatography-coupled mass spectrometry (LC–MS)
- Conditions Used: bacteroides sp. wh2, 12 h, 2 µM
Experimental Endpoint: Bacterial Biotransformation

CC(C)NCC(O)COc1ccc(CCOCC2CC2)cc1 (stereo not given) = Compound NOT metabolized
CN1CCC(OC(c2ccccc2)c2ccccc2)CC1 = Compound NOT metabolized
N[C@@H](Cc1ccc(N(CCCl)CCCl)cc1)C(=O)O = Compound metabolized
N=C(N)NC(=O)Cc1c(Cl)cccc1Cl = Compound NOT metabolized
CCN(CC)CCOCCOC(=O)C1(c2ccccc2)CCCC1.O=C(O)CC(O)(CC(=O)O)C(=O)O [CARBETAPENTANE CITRATE] = Compound metabolized
CCOc1ccc(NC(C)=O)cc1 = Compound NOT metabolized
CN(C)CCOC(c1ccc(Cl)cc1)c1ccccn1.O=C(O)/C=C\C(=O)O (stereo not given) [CARBINOXAMINE MALEATE] = Compound NOT metabolized
CCN(CC)CCOC(=O)C1(C2CCCCC2)CCCCC1 = Compound NOT metabolized
CC(=O)OCC(CCn1cnc2cnc(N)nc21)COC(C)=O = Compound metabolized
CS(=O)(=O)O.OC(CCN1CCCCC1)(c1ccccc1)c1ccccc1 [PRIDINOL METHANESULFONATE] = Compound NOT metabolized
CC#C[C@]1(O)CC[C@H]2[C@@H]3CCC4=CC(=O)CCC4=C3[C@@H](c3ccc(N(C)C)cc3)C[C@@]21C = Compound NOT metabolized
CN1CCC(=C2c3ccccc3CC(=O)c3sccc32)CC1.O=C(O)/C=C/C(=O)O [KETOTIFEN FUMARATE] = Compound NOT metabolized
CN1CCOC(c2ccccc2)c2ccccc2C1 (stereo not given) = Compound NOT metabolized
CCC(=O)NCC[C@@H]1CCc2ccc3c(c21)CCO3 = Compound NOT metabolized
O=C(NCc1ccccc1)OCCO [BURAMATE] = Compound NOT metabolized
CC[C@@H](CO)NC(=O)[C@@H]1C=C2c3cccc4c3c(cn4C)C[C@H]2N(C)C1.O=C(O)/C=C\C(=O)O [METHYSERGIDE MALEATE] = Compound metabolized
N#Cc1ccc(C(c2ccc(C#N)cc2)n2cncn2)cc1 = Compound NOT metabolized
CCOC(=O)[C@H](CCc1ccccc1)N[C@H]1CCc2ccccc2N(CC(=O)O)C1=O = Compound metabolized
CCOC(=O)[C@H](CCc1ccccc1)N[C@@H](C)C(=O)N1Cc2ccccc2C[C@H]1C(=O)O = Compound NOT metabolized
CC(C)(C)NC(=O)[C@H]1CC[C@H]2[C@@H]3CC[C@H]4NC(=O)C=C[C@]4(C)[C@H]3CC[C@]12C [FINASTERIDE] = Compound NOT metabolized

----------
- Assay Explanation: The drug is tested on Clostridium symbiosum strain: ATCC14940 for biotransformation. The drug concentrations were measured before and after a 12-h incubation by liquid-chromatography-coupled mass spectrometry (LC–MS)
- Conditions Used: 2 µM
Experimental Endpoint: Bacterial Biotransformation

CCOC(=O)[C@H](CCc1ccccc1)N[C@@H](C)C(=O)N1[C@H](C(=O)O)C[C@H]2CCCC[C@@H]21 = Compound NOT metabolized
CN(C/C=C/C#CC(C)(C)C)Cc1cccc2ccccc12 = Compound NOT metabolized
CCOC(=O)C1=C(C)NC(C)=C(C(=O)OC)C1c1cccc([N+](=O)[O-])c1 (configuration not stated) = Compound metabolized
COc1c(C)c2c(c(O)c1C/C=C(\C)CCC(=O)OCCN1CCOCC1)C(=O)OC2 [MYCOPHENOLATE MOFETIL] = Compound metabolized
CC(=O)OCC(=O)[C@@]1(O)[C@@H](C)C[C@H]2[C@@H]3CCC4=CC(=O)C=C[C@]4(C)[C@@]3(F)[C@@H](O)C[C@@]21C [BETAMETHASONE ACETATE] = Compound NOT metabolized
C[C@]12CCC(=O)C=C1[C@@H]1C[C@@H]1[C@H]1[C@@H]3[C@@H]4C[C@@H]4[C@@]4(CCC(=O)O4)[C@@]3(C)CC[C@@H]12 = Compound NOT metabolized
Cc1cc2c(s1)Nc1ccccc1N=C2N1CCN(C)CC1 = Compound NOT metabolized
